SYSTEM: T1, UNK ZnF1-3 (human, UniProt Q9C0B0 31-174)
T1 sequence: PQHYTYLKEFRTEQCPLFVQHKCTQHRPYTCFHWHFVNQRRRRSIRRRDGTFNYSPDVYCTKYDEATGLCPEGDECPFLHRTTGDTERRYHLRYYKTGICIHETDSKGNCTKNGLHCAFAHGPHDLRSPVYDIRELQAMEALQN
EXPERIMENTAL DETAILS: nsRBNS (natural sequence RNA bind-n-seq); RBNS binding buffer (assumed for nsRBNS): 25 mM Tris pH 7.5, 150 mM KCl, 3 mM MgCl2, 0.01% Triton X-100, 500 ug/ml BSA, 20 U/ml SUPERase-In, 4 C; UNK is unkempt and MSI1 is Musashi-1; names of the RNAs are library labels; protein concentration not given here; high values mean tight binding
The full ranking holds about 24,000 sequences; the median of “enrichment r” is about 0.99, and the highest 2% start at about 3.7. This is one part of a sample in which the highest values are shown more often than they occur.
Overview of reported binding signal across a group of binders:

{"BINDER": "chr11:54532911:54532912:-_ENSMUSG00000052298_ENSMUST00000064104|mus_mus|motif|central (ssRNA) RNA: GGGAGUUCUACAGUCCGACGAUCGCAGAGGGGCUGGAGGUGCAAUGAAAAGGCUUAAAAUGGAAAAAUUACAAUACAGUGCGGGCAGUCACAGAAAAGACCAUGCUAAGAUCCGAUCCAUGUCAAUUAAACAUUGAAAAUUCACAACAGAGGAUUGAGCAUCA", "binding signal": "4.45 enrichment R"}

Requested read-out: binding signal. Entry: chr19:15981513:15981514:-_ENSMUSG00000024640_ENSMUST00000025542|mus_hu|motif|central (ssRNA) RNA: GGGAGUUCUACAGUCCGACGAUCUAAAGCAUCAUCUCCUUUGGCAUUGCCAAUGCGGAAUGGAAUAUUCAUCUUGCUUCGGUUUUGGGGCUCCACUGGACAAACGUAGAAUCCUUGAGAAUUAUCAAUAAUCUCAUAAAUUGUCAACAGAGGAUUGAGCAUCA
0.859 enrichment R
